# System: 967376-340-R-J2-PDC multicell spheroid viability;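 also: luminescence used as surrogate of cell viability; spheroids exposed to agents for 7 days before read-out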
# method summary: Anticancer human tumor 967376-340-R-J2-PDC patient-derived colon adenocarcinoma cell line growth inhibition [PI3K]
# condition info: second compound 0.00316 µM; first compound 0.0316 µM; stronger effect = lower value
# if measured viability, T/C < 90%: condition met  # else: condition not met

Record excerpt, results attached:
[Q] Find out if reported viability, T/C for CC(C)n1nc(-c2ccc3oc(N)nc3c2)c2c(N)ncnc21 + COc1c(OCCCN2CCOCC2)ccc2c3n(c(=NC(=O)c4cnc(N)nc4)nc12)CCN3 is less than 90%
[A] condition met

[Q] Find out if reported viability, T/C for CC1(C)CCC(Nc2ncc(C(F)(F)F)c(-c3c[nH]c4c(P(C)(C)=O)c(C#N)ccc34)n2)CN1 (stereo unspecified) + CC(Nc1ccc2c(c1)OCCn1cc(N3C(=O)OCC3C(F)F)nc1-2)C(N)=O is less than 90%
[A] condition not met

[Q] Find out if reported viability, T/C for Cn1ncc(Cl)c1-c1cc(C(=O)NC(CN)Cc2cccc(F)c2)sc1Cl (stereo unspecified) + CC(Nc1ccc2c(c1)OCCn1cc(N3C(=O)OCC3C(F)F)nc1-2)C(N)=O is less than 90%
[A] condition not met

[Q] Find out if reported viability, T/C for CC1(C)CCC(CN2CCN(c3ccc(C(=O)NS(=O)(=O)c4ccc(NCC5CCOCC5)c([N+](=O)[O-])c4)c(Oc4cnc5[nH]ccc5c4)c3)CC2)=C(c2ccc(Cl)cc2)C1 + CC(Nc1ccc2c(c1)OCCn1cc(N3C(=O)OCC3C(F)F)nc1-2)C(N)=O is less than 90%
[A] condition not met

[Q] Find out if reported viability, T/C for CC(C)NCC(C(=O)N1CCN(c2ncnc3c2C(C)CC3O)CC1)c1ccc(Cl)cc1 (stereo unspecified) + CC(Nc1ccc2c(c1)OCCn1cc(N3C(=O)OCC3C(F)F)nc1-2)C(N)=O is less than 90%
[A] condition not met

[Q] Find out if reported viability, T/C for CC(Cn1ccc(-c2ccc(C#N)c(Cl)c2)n1)NC(=O)c1cc(C(C)O)[nH]n1 (stereo unspecified) + CC(Nc1ccc2c(c1)OCCn1cc(N3C(=O)OCC3C(F)F)nc1-2)C(N)=O is less than 90%
[A] condition not met

[Q] Find out if reported viability, T/C for C#Cc1c(F)ccc2cc(O)cc(-c3ncc4c(N5CC6CCC(C5)N6)nc(OCC56CCCN5CC(F)C6)nc4c3F)c12 (stereo unspecified) + CC(Nc1ccc2c(c1)OCCn1cc(N3C(=O)OCC3C(F)F)nc1-2)C(N)=O is less than 90%
[A] condition not met

[Q] Find out if reported viability, T/C for CC(Cn1ccc(-c2ccc(C#N)c(Cl)c2)n1)NC(=O)c1cc(C(C)O)[nH]n1 (stereo unspecified) + COc1c(OCCCN2CCOCC2)ccc2c3n(c(=NC(=O)c4cnc(N)nc4)nc12)CCN3 is less than 90%
[A] condition not met

[Q] Find out if reported viability, T/C for C=CC(=O)N1CCN(c2nc(=O)n(-c3c(C)ccnc3C(C)C)c3nc(-c4c(O)cccc4F)c(F)cc23)C(C)C1 (stereo unspecified) + COc1c(OCCCN2CCOCC2)ccc2c3n(c(=NC(=O)c4cnc(N)nc4)nc12)CCN3 is less than 90%
[A] condition not met

[Q] Find out if reported viability, T/C for CC1(C)CCC(Nc2ncc(C(F)(F)F)c(-c3c[nH]c4c(P(C)(C)=O)c(C#N)ccc34)n2)CN1 (stereo unspecified) + COc1c(OCCCN2CCOCC2)ccc2c3n(c(=NC(=O)c4cnc(N)nc4)nc12)CCN3 is less than 90%
[A] condition met

Continuing:
[Q] Find out if reported viability, T/C for CC(=O)c1c(C)c2cnc(Nc3ccc(N4CCNCC4)cn3)nc2n(C2CCCC2)c1=O + CC(Nc1ccc2c(c1)OCCn1cc(N3C(=O)OCC3C(F)F)nc1-2)C(N)=O is less than 90%
[A] condition not met

[Q] Find out if reported viability, T/C for CCCS(=O)(=O)Nc1ccc(F)c(C(=O)c2c[nH]c3ncc(-c4ccc(Cl)cc4)cc23)c1F + CC(Nc1ccc2c(c1)OCCn1cc(N3C(=O)OCC3C(F)F)nc1-2)C(N)=O is less than 90%
[A] condition met

[Q] Find out if reported viability, T/C for CC(C)NCC(C(=O)N1CCN(c2ncnc3c2C(C)CC3O)CC1)c1ccc(Cl)cc1 (stereo unspecified) + COc1c(OCCCN2CCOCC2)ccc2c3n(c(=NC(=O)c4cnc(N)nc4)nc12)CCN3 is less than 90%
[A] condition met

[Q] Find out if reported viability, T/C for CCN1CCN(Cc2ccc(Nc3ncc(F)c(-c4cc(F)c5nc(C)n(C(C)C)c5c4)n3)nc2)CC1 + CC(Nc1ccc2c(c1)OCCn1cc(N3C(=O)OCC3C(F)F)nc1-2)C(N)=O is less than 90%
[A] condition met

[Q] Find out if reported viability, T/C for CCCS(=O)(=O)Nc1ccc(F)c(C(=O)c2c[nH]c3ncc(-c4ccc(Cl)cc4)cc23)c1F + COc1c(OCCCN2CCOCC2)ccc2c3n(c(=NC(=O)c4cnc(N)nc4)nc12)CCN3 is less than 90%
[A] condition not met
